- protocol-text: Hemolytic activity at mouse RBC assessed as hemolysis
- Format: toxicity, cell-based, Erythrocyte
- assay-setup: mouse red blood cells, read-out: Activity
recorded-endpoint: hemolysis

QUERY: What value of measured hemolysis is listed for H-KRIVRRIKIFLR-OH ?
RESULT: < 1%

----------
- Test system: Staphylococcus aureus
- protocol-text: Antibacterial activity against Staphylococcus aureus […] assessed as inhibition of bacterial growth incubated for 24 hrs by broth dilution assay
- Format: functional
Positions of bridges follow the written chain, without caps; N, C: chain ends. Non-standard residues stand in square brackets, D forms with d. Residues, ends and D or L forms follow the SMILES beside them. S5 = C=CCCC[C@](C)(N)C(=O)O
recorded-endpoint: MIC (µg/mL)
Could you give me the number in µg/mL? Just the number is fine.

INSERT INTO results (compound, tgt, numeric_result) VALUES
  ('CO/N=C(\C(=O)N[C@@H]1C(=O)N2C(C(=O)O)=C(COC(C)=O)CS[C@H]12)c1csc(N)n1', 'Staphylococcus aureus', 2.5),
  ('O=C(O)c1cn(C2CC2)c2cc(N3CCNCC3)c(F)cc2c1=O', 'Staphylococcus aureus', 2.5),
  ('CC[C@H](C)[C@H](NC(=O)[C@H](CCCCN)NC(=O)[C@@H](NC(=O)[C@H](CCCNC(=N)N)NC(=O)[C@]1(C)CCC/C=C/CCC[C@](C)(N)C(=O)N[C@@H](CCCNC(=N)N)C(=O)N[C@@H]([C@@H](C)CC)C(=O)N[C@@H](C(C)C)C(=O)N1)[C@@H](C)CC)C(=O)N[C@@H](Cc1ccccc1)C(=O)N[C@@H](CC(C)C)C(=O)N[C@@H](CCCNC(=N)N)C(=O)O (H-[S5]RIV[S5]RIKIFLR-OH; staple (E) 1-5)', 'Staphylococcus aureus', 160),
  ('CC[C@H](C)[C@H](NC(=O)[C@H](CCCNC(=N)N)NC(=O)[C@@H](N)CCCCN)C(=O)N[C@H](C(=O)N[C@@H](CCCNC(=N)N)C(=O)N[C@@]1(C)CCC/C=C/CCC[C@@](C)(C(=O)N[C@@H](CC(C)C)C(=O)N[C@@H](CCCNC(=N)N)C(=O)O)NC(=O)[C@H]([C@@H](C)CC)NC(=O)[C@H](CCCCN)NC(=O)[C@H]([C@@H](C)CC)NC1=O)C(C)C (H-KRIVR[S5]IKI[S5]LR-OH; staple (E) 6-10)', 'Staphylococcus aureus', 80),
  ('CC[C@H](C)[C@@H]1NC(=O)[C@H](CCCNC(=N)N)NC(=O)[C@@](C)(N)CCC/C=C\CCC[C@@](C)(C(=O)N[C@H](C(=O)N[C@@H](Cc2ccccc2)C(=O)N[C@@H](CC(C)C)C(=O)N[C@@H](CCCNC(=N)N)C(=O)O)[C@@H](C)CC)NC(=O)[C@H]([C@@H](C)CC)NC(=O)[C@H](CCCNC(=N)N)NC(=O)[C@H](CCCNC(=N)N)NC(=O)[C@H](C(C)C)NC1=O (H-[S5]RIVRRI[S5]IFLR-OH; staple (Z) 1-8)', 'Staphylococcus aureus', 320);

QUERY: What value of measured MIC is listed for CC[C@H](C)[C@@H]1NC(=O)[C@H](CCCNC(=N)N)NC(=O)[C@H](CCCNC(=N)N)NC(=O)[C@H](C(C)C)NC(=O)[C@@](C)(NC(=O)[C@H](CCCNC(=N)N)NC(=O)[C@@H](N)CCCCN)CCC/C=C/CCC[C@@](C)(C(=O)N[C@@H](CC(C)C)C(=O)N[C@@H](CCCNC(=N)N)C(=O)O)NC(=O)[C@H]([C@@H](C)CC)NC(=O)[C@H](CCCCN)NC1=O (H-KR[S5]VRRIKI[S5]LR-OH; staple (E) 3-10) ?
RESULT: 80

Values from ChEMBL document CHEMBL6109103
